Assign Tm to each entry below.
MEASUREMENT_PROTOCOL: melting temperature; fluorescence melt of hairpins on a sequencing array, two-state fit, raised by 9.35 °C to match UV melts
DETAILS: sodium 0.088 M
Give the number; °C is assumed, so skip it.

(Q) Look up Tm: GCCTTACGAAAGTACGGC (((.(((....))).)))
(A) 52.2

(Q) Look up Tm: GCGTACGAAAGTACCGC ((((((....))).)))
(A) 56.8

(Q) Look up Tm: GGTGTAGCGAAAGCTACC (((..(((....))))))
(A) 49.1

(Q) Look up Tm: GTTGATCGAAAGATAAAC (((.(((....))).)))
(A) 40

(Q) Look up Tm: GGTAGCGAAAGCTAAACC ((((((....)))..)))
(A) 42.8

(Q) Look up Tm: GCCCACGCGAAAGCGGGC (((..(((....))))))
(A) 61.8

###

MEASUREMENT_PROTOCOL: folding enthalpy; higher = less favourable; fluorescence melt of hairpins on a sequencing array, two-state fit
DETAILS: sodium 0.088 M
Decide by folding enthalpy: equal to or exceeding -30 kcal/mol means Yes, less means No.

(Q) Reported folding enthalpy at or above -30 kcal/mol? GGGCACCCGAAAGGGCCC (((..(((....))))))
(A) No

(Q) Reported folding enthalpy at or above -30 kcal/mol? GGGCACGGAAACATGCCC (((((.(....).)))))
(A) No

(Q) Reported folding enthalpy at or above -30 kcal/mol? CGAATCGGAAACGATCG (((.(((....))))))
(A) No

(Q) Reported folding enthalpy at or above -30 kcal/mol? GCTCTACCGAAAGGTAGC (((..(((....))))))
(A) Yes

(Q) Reported folding enthalpy at or above -30 kcal/mol? GCACGCGAAAGCGCTGC ((((((....))).)))
(A) Yes

###

MEASUREMENT_PROTOCOL: melting temperature; fluorescence melt of hairpins on a sequencing array, two-state fit, raised by 9.35 °C to match UV melts
DETAILS: sodium 0.088 M
Assign Tm to each entry below.
Give the number; °C is assumed, so skip it.

(Q) Look up Tm: CGAACGGAAACGTGCTCG ((((((....)))..)))
(A) 28.5

(Q) Look up Tm: GGGGCGTCGAAAGACCCC (((..(((....))))))
(A) 57.3

(Q) Look up Tm: GATCTACGAGTAGATC ((((((....))))))
(A) 52.3

(Q) Look up Tm: GGATACGAAAGTATTCC ((((((....))).)))
(A) 42.9

(Q) Look up Tm: GATATAGGAAACTATATC (((((((....)))))))
(A) 45.5

(Q) Look up Tm: GTGAAGGGAAACCCTCAC ((((.((....)).))))
(A) 43.3

(Q) Look up Tm: GATCTAACCTAGATC ((((((...))))))
(A) 38.1

(Q) Look up Tm: GGGTTTCGAAAGAACCCC (((.(((....))).)))
(A) 51.3

(Q) Look up Tm: GATCCTAGAGAGGATC ((((((....))))))
(A) 48

(Q) Look up Tm: GTTCGTGGAAACACAAAC (((.(((....))).)))
(A) 34

(Q) Look up Tm: CGCGGAAAGCTCCGCG ((((((....))))))
(A) 68.7

(Q) Look up Tm: GATGCTGGAAACAACATC ((((.((....)).))))
(A) 36.2
